# Test system: HEK293
# assay_comment: Cytotoxicity against human HEK293 cells after 72 hrs by MTT assay
# Type: functional, cell-based
# experimental_conditions: HEK293, 72 h
Give measured IC50 for each item. Keep answers brief.
Unit nM implied. Number only.

Sure, the documented IC50 for COc1cc2c(c(OC)c1OC)-c1ccc(OC)c(=O)cc1[C@@H](NC(C)=O)CC2 is 9

Sure, the documented IC50 for COc1ccc(C(=O)c2cc(OC)c(OC)c(OC)c2)cc1O is 23

Sure, the documented IC50 for CCCCC/C=C\C/C=C\CCCCCCCC(=O)Oc1cc(C(=O)c2cc(OC)c(OC)c(OC)c2)ccc1OC is 210

Sure, the documented IC50 for COc1cc(C(=O)c2cc(OC)c(OC)c(OC)c2)ccc1O is 196

Sure, the documented IC50 for CCCCCCCCCCCCCCCCCC(=O)Oc1ccc(C(=O)c2cc(OC)c(OC)c(OC)c2)cc1OC is 15600

Sure, the documented IC50 for CCCCC/C=C\C/C=C\CCCCCCCC(=O)Oc1ccc(C(=O)c2cc(OC)c(OC)c(OC)c2)cc1OC is 903

Sure, the documented IC50 for CCCCCCCC/C=C\CCCCCCCC(=O)Oc1ccc(C(=O)c2cc(OC)c(OC)c(OC)c2)cc1OC is 2360

Sure, the documented IC50 for CCCCCCCCCCCCCCCCCC(=O)Oc1cc(C(=O)c2cc(OC)c(OC)c(OC)c2)ccc1OC is 2640

Sure, the documented IC50 for CCCCCCCC/C=C\CCCCCCCC(=O)Oc1cc(C(=O)c2cc(OC)c(OC)c(OC)c2)ccc1OC is 950

The reported measurements were obtained from ChEMBL document CHEMBL2434821.
